tested on: corn (Zea mays); assay: Test G Post-Emergence Protocol; assay type: in vivo; conditions: Zea mays, post-emergence, 312 h, 62.5 g ai/ha, evaluated after 13 days, read-out: Corn damage rating (100=total damage to plant; 0=no damage to plant)
# reported plant injury at 62.5 g/ha; entries follow
Report as a plain number; the unit % is understood.

CN1C[C@@H](c2ccc(C(F)(F)F)cc2)[C@H](C(=O)Nc2ccccc2)C1=O (racemic) :: 20
CN1C[C@@H](c2ccc(C(F)(F)F)cc2)[C@H](C(=O)Nc2nnc(C(F)(F)F)s2)C1=O (racemic) :: 0
CN1C[C@@H](c2cc(Cl)cc(C(F)(F)F)c2)[C@H](C(=O)Nc2ccccc2F)C1=O (racemic) :: 50

Entry Cc1cncc(NC(=O)[C@@H]2C(=O)N(C)C[C@H]2c2ccc(C(F)(F)F)cc2)n1 (racemic) : plant injury at 62.5 g/ha on corn (Zea mays) = 0

Entry CN1C[C@H](c2cccc(C(C)(C)C#N)c2)[C@@H](C(=O)Nc2ccccc2F)C1=O (racemic) : plant injury at 62.5 g/ha on corn (Zea mays) = 10

Entry CN1C[C@@H](c2cnc(Cl)c(Cl)c2)[C@H](C(=O)Nc2cccc(F)c2F)C1=O (racemic) : plant injury at 62.5 g/ha on corn (Zea mays) = 60
